Data origin: paper PMC5540273

# Test system: RET;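 further: kd values determined as follow-up on hits from a single-replicate KINOMEscan panel screen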
pKd: −log10 of the molar value.

record-smiles: Fc1ccc(-c2nn3cccc(F)c3c2-c2ccncc2)cc1
pKd: < 5.00

----------
# Tested on: CAMK1G
# condition-description: concentration: 1 μM, replicates: in singlicate; n = 1

compound: FC(F)(F)c1ccccc1-c1cc(-c2c[nH]nc2-c2ccccn2)ccn1 [GW679396]
system: CAMK1G
units: %
%Inh: 8
//
compound: O=C(Nc1n[nH]c2nc(-c3cccs3)c(Br)cc12)C1CCCC1 [SB-743341]
system: CAMK1G
units: %
%Inh: 0
//
compound: Cc1ccc(NC(=O)Nc2ccccc2F)cc1-c1ccc(C(=O)Nc2ccncc2)cc1 [GSK1398477]
system: CAMK1G
units: %
%Inh: 16
//
compound: O=C(Nc1n[nH]c2nc(-c3cccs3)c(Br)cc12)C1CC1 [SB-735297]
system: CAMK1G
units: %
%Inh: 0
//
compound: COc1ccc(CSc2nnc(-c3ccc4c(c3)CCO4)o2)cc1
system: CAMK1G
units: %
%Inh: 9
//
compound: CS(=O)(=O)Cc1ccc(Nc2nccc(-c3c(-c4cccc(NC(=O)C5CCCCC5)c4)nn4ncccc34)n2)cc1 [GSK350559]
system: CAMK1G
units: %
%Inh: 0
//
compound: COc1ccc(Nc2nccc(-c3ccc(NC(=O)c4cc5cc(F)ccc5[nH]4)cc3)n2)cc1 [GSK1229496]
system: CAMK1G
units: %
%Inh: 6
//
compound: CC(=O)c1c(C)c2cnc(Nc3ccc(N4CCNCC4)cn3)nc2n(C2CCCC2)c1=O
system: CAMK1G
units: %
%Inh: 0
//
compound: COc1ccc(Nc2nccc(NCCNC(=O)Nc3cc(C)ccc3C)n2)cc1 [GSK1379899]
system: CAMK1G
units: %
%Inh: 0
//
compound: Cc1ccc(NC(=O)c2ccc(Cl)cc2)cc1-c1ccc(C(=O)Nc2ccncc2)cc1 [GSK1398467]
system: CAMK1G
units: %
%Inh: 9
//
compound: CNc1cc(-c2ccc3c(N)n[nH]c3c2)nc(N)n1 [GSK2224810]
system: CAMK1G
units: %
%Inh: 0
//
compound: O=c1cc(N2CCOCC2)nc2n(Cc3ccccc3F)ccn12 [GSK2297428]
system: CAMK1G
units: %
%Inh: 5
//
compound: Nc1ncnc2occ(-c3ccc4c(c3)CCN4C(=O)Cc3cc(F)ccc3F)c12 [GSK2645446]
system: CAMK1G
units: %
%Inh: 9
//
compound: O=C(Nc1n[nH]c2nc(-c3ccco3)c(Br)cc12)C1CCN(Cc2ccccc2)C1.O=C(O)[C@H](O)[C@@H](O)C(=O)O (stereo not drawn) [SB-742034]
system: CAMK1G
units: %
%Inh: 10
//
compound: Nc1cccc(-c2ccc3c(N)n[nH]c3c2)n1 [GSK2192730]
system: CAMK1G;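 further: KINOMEscan kinase panel screen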
units: %
%Inh: 9
